Test system: NCI-H460 lung
assay details: NCI tumour cell line growth inhibition, 48 h
TGI values by entry

For orientation, consider the following solved cases.
COc1ccc(C2=NN(C(=O)COc3ccc(Cl)cc3)C(O)(c3cc(F)c(Cl)cc3Cl)C2)cc1OC (configuration not stated) = 24.3 µM
Cc1ccc(S(=O)(=O)Nc2nc3ccccc3c(=O)n2C2CCCCC2)cc1 = > 100 µM
COc1ccc(C[C@H]2NC(=O)/C=C/C[C@@H]([C@H](C)[C@H]3O[C@@H]3c3ccccc3)OC(=O)[C@H](CC(C)C)OC(=O)[C@H](C)CNC2=O)cc1 = > 0.0001 µM

Reported TGI for OC(C1=C/C(=C\c2ccncc2)c2ccccc21)c1ccncc1 (configuration not stated) was 28.2 µM

Entry `NCCCC(=O)Nc1ccncc1` , TGI reported as > 100 µM

For `O=C(O)C(F)(F)C(F)(F)C(F)(F)C(F)(F)C(=O)O` the molecule record lists TGI as > 100 µM

Field TGI (entry CC(=O)C1CC2(c3ccc(C)cc3)C(c3ccc(C)cc3)=C(c3ccc(C)cc3)C1(c1ccc(C)cc1)S2=O (configuration not stated) ) reads > 100 µM

The molecule listed as `CCSCC(=O)N1CCc2c([nH]c3ccccc23)C1=O` shows TGI equal to > 100 µM

Data credit: PubChem BioAssay (NCI)
